Assay: qHTS Assay for Lipid Storage Modulators in Drosophila S3 Cells
Details: BODIPY lipid droplet fluorescence, 18-24 h, cells fed with added oleic acid; series mostly up to 46.1 µM
In all, about 320,000 compounds went through this assay and about 2,100 (0.66%) were called active. Another 53% or so got no clear call; they are omitted. Calls follow the shape of the dose curve; as a rule, active = well fitted inhibition curve with a large enough effect in the signal ratio, with a control signal flat (not every such curve was filed as active); inconclusive = small, poorly fitted or top-dose-only effect, or effect the other way, or a change in a side signal; inactive = flat fitted curve, though single readings scatter; the % refers to the signal ratio. The list comes from a sample in which actives are over-represented; it also holds close analogues and randomly drawn compounds.
Your reply should match one of these outcome classes. active, inactive

Outcome? COc1ccc(-c2nc3c(n2O)CCC/C3=N\O)cc1
active

Please indicate how the test categorized COc1ccccc1NC(=O)CCNS(=O)(=O)c1ccc2c(c1)CC(C)N2C(=O)C1CC1 (stereo not given) .
inactive

Which outcome was assigned to O=C(Nc1ccc(-n2cc(Cl)cn2)cc1)c1ccncc1 in this test?
inactive

// param item: COc1ccc(OC[C@@H](O)CNC(=O)c2cccc3c2C(=O)c2ccc(Cl)cc2S3(=O)=O)cc1 ; yields the recorded call
inactive

Returns: the outcome recorded for O=C(O)CN(c1ccccc1)C1SC(=O)NC1=O (stereo not given) in this assay.
active

For this compound, state the assay outcome: O=C(Cn1ccc(C(F)(F)F)n1)N/N=C/c1ccc2c(c1)OCO2
inactive

GET /call?item= COc1nc(OC)nc(N2CCC(C(=O)Nc3cccc4c3CCCC4)CC2)n1 returns the recorded outcome of this test.
inactive

Called result for CCC(CC)C(=O)NCCc1cc2ccc(C)c(C)c2[nH]c1=O
inactive

Please state the recorded outcome for this compound: O/N=C1\CCCc2c1nc(-c1ccccc1F)n2O
inactive

Record request — test call for S=c1[nH]nc(-c2cc(-c3ccccc3)n[nH]2)n1/N=C/C=C/c1ccccc1
inactive

Hi, sorry to bother you, what did the test record for CN1C(=O)c2cccc(NC(=O)CCc3ccccc3)c2C1=O ?
inactive

Can you look up the reported call for COc1ccc(C2NN=C(c3ccc(C)cc3)S2)cc1 (stereo not given) for me?
inactive

# outcome recorded in this test, key = Cc1ccc(C2=NNC(C(O)C(O)C(O)C(O)CO)S2)cc1 (stereo not given)
active

Any idea what this test logged for COCCn1nnnc1C(c1ccccn1)N1CCN(c2cccc(C)c2C)CC1 (stereo not given) ?
inactive

Any idea what this test logged for COC(=O)c1c(NC(=O)CSc2nnc(C)c(=O)[nH]2)sc(C)c1C ?
inactive

# fetch the recorded call for CC(=O)Nc1ccc(SC(C)C(=O)NC(N)=O)cc1 (stereo not given) here
active

Per the records of this test, what outcome belongs to Cc1ccc(N(CC(N)=O)C2SC(=O)NC2=O)cc1 (stereo not given) ?
inactive

Any idea what this test logged for CCOc1ccc(CCNC(=O)c2ccc(=O)[nH]c2)cc1OCC ?
inactive

For this compound, state the assay outcome: Cc1ccc(CSCC(=O)N(C)CC(=O)Nc2ccc(C)cc2)cc1
inactive

Assay outcome for O=C(Nc1nc2c(F)cc(F)cc2s1)C1CCN(C(=O)c2ccc(F)cc2)CC1 : what was it?
inactive

Hi, sorry to bother you, what did the test record for CC1Cc2cc(S(=O)(=O)NCc3ccccc3)ccc2N1C(=O)C1CC1 (stereo not given) ?
inactive

For CCCCOc1ccc(C(=O)N=c2sccn2C)cc1OC , which call appears in the assay record?
inactive

So what was the verdict on O=c1cc(N2CCCCCC2)[nH]c(=O)n1-c1ccc(Cl)cc1 in this test?
inactive

Tell me the recorded outcome of this test for COc1cccc(CNS(=O)(=O)c2ccc3c(c2)CC(C)N3C(=O)C2CC2)c1 (stereo not given) .
active

Field: outcome | Entry: COc1nc(N2CCCC2)nc(-n2nnc(C(C)=O)c2C)n1
inactive

// param item: COc1ccccc1CNS(=O)(=O)c1ccc2c(c1)CC(C)N2C(=O)C1CCC1 (stereo not given) ; yields the recorded call
active

Could you kindly confirm the outcome this assay logged for Cc1nnc(-c2ccc(Oc3ccc(Br)cc3)c([N+](=O)[O-])c2)o1 ?
inactive

How was C[C@@H](NC(=O)c1nc[nH]c1C(=O)NCC(=O)OC(C)(C)C)c1ccccc1 classified in this test?
inactive

Answer briefly: the call reported for CC(Sc1ccc2ccccc2c1)C(=O)NC(N)=O (stereo not given) in this assay.
inactive

Hello, I am checking results. What call was entered for CCOC(=O)c1nn(-c2ccc(Cl)cc2Cl)c(=N)c(C#N)c1C ?
active

Tell me the assay call for COc1ccc(C(=O)CC2SC(N)=NC2=O)cc1 (stereo not given) please.
inactive

Returns: the outcome recorded for COc1ccccc1OCC(=O)Nc1cc(NC(=O)COc2ccccc2OC)cc(C(=O)O)c1 in this assay.
inactive

Short answer needed: outcome of this test for Cc1cccc(N(CC(N)=O)C2SC(=O)NC2=O)c1 (stereo not given) ?
inactive

For this compound, state the assay outcome: CCCCC[C@H]1CN(CCc2ccccc2)C(=O)[C@@H]1CC(=O)NCc1ccc(OC)cc1
inactive

How did this test come out for CCOC(=O)c1nn(-c2ccc(C)c(C)c2)c(=O)c(C#N)c1C ?
inactive

What did the test return for CCN(CC)C(=O)c1cccc(NC(=O)CC23CC4CC(CC(C4)C2)C3)c1 ?
active

Assay outcome for CC(=O)Nc1ccc(S(=O)(=O)Oc2cccc(N3C(=O)C4CCCCC4C3=O)c2)cc1 (stereo not given) : what was it?
inactive

Recorded test call requested for Cc1nc2c(n1O)CCC/C2=N\O
inactive

Record request — test call for COC(=O)c1ccncc1C(=O)Nc1ccc(Oc2ncc(C(F)(F)F)cc2Cl)cc1
inactive

Which outcome was entered for the compound C=CCNC(=S)NNC(=O)c1ccc(OCC)cc1 in this test?
inactive

Kindly provide the recorded test outcome for the following compound: O=C(CN1C(=O)NC2(CCCC2)C1=O)Nc1cc(Cl)ccc1Oc1ccccc1
inactive

How was Cn1ccsc1=NC(=O)c1cccc(OC(F)F)c1 classified in this test?
inactive

Can you look up the reported call for Cc1ccc(S(=O)(=O)N2CCC(=O)N(CCOCc3ccccc3C)CC2)cc1 for me?
inactive

What was the test verdict on COc1cc(C#N)ccc1OCC(=O)NCc1cccs1 ?
inactive

Status in this test for Cc1ccc(C2=NNC(C(O)C(O)C(O)C(C)O)S2)cc1 (stereo not given) ?
inactive
